molecular target: RAC-alpha serine/threonine-protein kinase (Homo sapiens); test: Inhibition of Akt using RPRTSSF peptide and [gamma32]ATP at 5 uM by cell-free radioactive assay relative to control
Sequence (P31749 whole entry): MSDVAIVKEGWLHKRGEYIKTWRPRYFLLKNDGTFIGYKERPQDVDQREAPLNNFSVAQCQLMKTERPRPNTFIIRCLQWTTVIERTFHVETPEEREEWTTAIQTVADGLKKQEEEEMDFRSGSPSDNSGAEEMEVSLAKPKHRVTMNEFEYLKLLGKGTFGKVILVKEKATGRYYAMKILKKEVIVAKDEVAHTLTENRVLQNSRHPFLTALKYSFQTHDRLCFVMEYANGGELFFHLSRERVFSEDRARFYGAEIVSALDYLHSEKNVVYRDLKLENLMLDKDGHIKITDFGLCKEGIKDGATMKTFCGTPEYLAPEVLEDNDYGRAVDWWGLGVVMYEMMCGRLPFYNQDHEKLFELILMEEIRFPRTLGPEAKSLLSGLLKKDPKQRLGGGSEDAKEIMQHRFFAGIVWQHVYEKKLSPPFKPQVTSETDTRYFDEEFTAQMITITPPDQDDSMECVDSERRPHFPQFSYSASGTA
*1 amine or outer side, *2 acyl side, *3 side chain or, on linkers, in order; H or OH if unused. Where a SMILES comes first, the peptide text is derived from it. Bridges are numbered along the chain shown (N, C = ends). [ ]: non-standard residue; d: D form. NGly(3-aminopropyl) = O=C(CN(CCCN[*:3])[*:1])[*:2]; Heptanedioyl = O=C(CCCCCC(=O)[*:2])[*:1]; hLeu = CC(C)CC[C@H](N)C(=O)O; Nva = CCC[C@H](N)C(=O)O; Dap = NC[C@H](N)C(=O)O; CO = O=C([*:1])[*:2]; Nlys = NCCCCNCC(=O)O
property: inhibition (%)
One number for each entry, in %.

[
  {
    "compound": "CCC[C@@H]1NC(=O)[C@H](CCCNC(=N)N)NC(=O)[C@@H]2CCCN2C(=O)[C@H](CCCNC(=N)N)NC(=O)CCCCCC(=O)NCCCCN(CC(N)=O)C(=O)[C@H](CCC(C)C)NC(=O)[C@H](CN)NC(=O)[C@H](Cc2ccc(O)cc2)NC1=O (RPR[Nva]Y[Dap][hLeu][Nlys]-NH2; linker N-8 via Heptanedioyl)",
    "unit-of-measurement": "%",
    "value": 16
  }
]

Quick batch: inhibition for everything below.
1. CCC[C@@H]1NC(=O)[C@H](CCCNC(=N)N)NC(=O)CN(C(=O)[C@@H](N)CCCNC(=N)N)CCCNC(=O)NCCCCN(CC(N)=O)C(=O)[C@H](CCC(C)C)NC(=O)[C@H](CN)NC(=O)[C@H](Cc2ccc(O)cc2)NC1=O (H-R[NGly(3-aminopropyl)]R[Nva]Y[Dap][hLeu][Nlys]-NH2; linker 2-8 via CO)
2. CCC[C@H](NC(=O)[C@H](CCCNC(=N)N)NC(=O)[C@@H](CCCCN)NC(=O)[C@@H](N)CCCNC(=N)N)C(=O)N[C@@H](Cc1ccc(O)cc1)C(=O)N[C@@H](CN)C(=O)N[C@@H](CCC(C)C)C(N)=O
3. CCC[C@H](NC(=O)[C@H](CCCNC(=N)N)NC(=O)[C@@H](CN)NC(=O)[C@@H](N)CCCNC(=N)N)C(=O)N[C@@H](Cc1ccc(O)cc1)C(=O)N[C@@H](CN)C(=O)N[C@@H](CCC(C)C)C(N)=O

stdout:
[92, 27, 32]
